# assay-remarks: Plasma concentration in mouse at 100 mg/kg administered via gavage
# Assay type: ADME, organism-based
# condition-parameters: in vivo, po

# test-smiles, concentration
rows = [
    ("CN1CCN(C(=O)c2ccc3cc(CCNc4ncnc5ccc(C#N)cc45)ccc3c2)CC1", "50 µM"),
]

* * *

# assay-remarks: AUC in rat at 40 mg/kg, ip
# Assay type: ADME, organism-based
# Design: dose 40 mg/kg
# condition-parameters: in vivo

# test-smiles, AUC (ng·h/mL)
measured = [
    ("CN1CCN(C(=O)c2ccc3cc(CCNc4ncnc5ccc(C#N)cc45)ccc3c2)CC1", 14100),
]
